The measurements presented in this section are drawn from paper PMC5540273.

tested on: PRKG1; conditions: concentration: 1 μM,replicates: in singlicate; n = 1;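 also: KINOMEscan kinase panel screen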
measured-endpoint: %Inh

Example compounds with recorded %Inh:
{"record-smiles": "CCN(CC)CCOc1ccc(Nc2ncc3cc(-c4c(Cl)cccc4Cl)c(=O)n(C)c3n2)cc1", "study-target": "PRKG1", "%Inh": "0%"}
{"record-smiles": "CNC(=O)c1ccccc1Sc1ccc2c(/C=C/c3ccccn3)n[nH]c2c1", "study-target": "PRKG1", "%Inh": "0%"}

The value of %Inh recorded for CC(C)N1C(=O)Cc2cc(Nc3ncc(C(F)(F)F)c(NCc4cccc(S(C)(=O)=O)c4)n3)ccc21 when tested on PRKG1 reads 0%

Record for CCN(CC)CCCCNc1ncc2cc(-c3c(Cl)cccc3Cl)c(NC(=O)NC(C)(C)C)nc2n1 under target or system PRKG1: %Inh reported as 2%

Entry CCn1c(-c2nonc2N)nc2c(C#CC(C)(C)O)nc(OCCN)cc21.Cl.Cl ; assay system PRKG1; %Inh recorded at 39%
